EXPERIMENTAL PARAMETERS: in gamma-butyrolactone, 323.15 K

SMILES NOTATION | solubility (mole fraction)
O=C1O[B-]2(OC1=O)OC(=O)C(=O)O2.[Li+] | 0.0372

----------
EXPERIMENTAL PARAMETERS: in DMF, 313.15 K

SMILES NOTATION | solubility (mole fraction)
O=C1O[B-]2(OC1=O)OC(=O)C(=O)O2.[Li+] | 0.0658

----------
EXPERIMENTAL PARAMETERS: in THF, 293.15 K

SMILES NOTATION | solubility (mole fraction)
O=C1O[B-]2(OC1=O)OC(=O)C(=O)O2.[Li+] | 0.0479
